system-tested: recombinant HA (rHA), subtype H3 (A/Perth/16/09 (H3N2)) (influenza A virus)
assay-name: ELISA, coated rHA
Measured EC50, listed per entry for reference.

binder	EC50
Antibody 6 (antibody, V domains shown) VH: QVQLQQSGPGLVKPSQTLSLTCAISGDRVSSNSAVWNWIRQSPSRGLEWLGRTYYRSKWYYDYAESVKSRIVIDPDTSKNQVSLQLNSVTPEDSAIYYCARGGHITEFGLNIDAYDIWGQGAMVTVSS VL: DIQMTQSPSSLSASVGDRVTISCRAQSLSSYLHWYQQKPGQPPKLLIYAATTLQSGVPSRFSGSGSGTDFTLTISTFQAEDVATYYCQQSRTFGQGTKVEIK	0.064 µg/mL
Antibody 10 (antibody, V domains shown) VH: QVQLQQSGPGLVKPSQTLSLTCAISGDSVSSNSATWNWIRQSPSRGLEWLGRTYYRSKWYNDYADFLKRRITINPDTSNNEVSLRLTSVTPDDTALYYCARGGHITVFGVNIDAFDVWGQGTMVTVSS VL: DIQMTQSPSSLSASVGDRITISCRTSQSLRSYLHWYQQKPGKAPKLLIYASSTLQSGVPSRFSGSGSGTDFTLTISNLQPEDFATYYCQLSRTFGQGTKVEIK	0.049 µg/mL
Antibody 5 (antibody, V domains shown) VH: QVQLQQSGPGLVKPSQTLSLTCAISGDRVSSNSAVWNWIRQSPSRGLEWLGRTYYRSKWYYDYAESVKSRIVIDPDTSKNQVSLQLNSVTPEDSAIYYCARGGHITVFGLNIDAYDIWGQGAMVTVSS VL: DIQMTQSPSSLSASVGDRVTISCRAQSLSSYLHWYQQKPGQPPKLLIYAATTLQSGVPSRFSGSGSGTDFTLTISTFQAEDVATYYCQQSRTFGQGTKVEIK	0.03 µg/mL
Antibody 8 (antibody, V domains shown) VH: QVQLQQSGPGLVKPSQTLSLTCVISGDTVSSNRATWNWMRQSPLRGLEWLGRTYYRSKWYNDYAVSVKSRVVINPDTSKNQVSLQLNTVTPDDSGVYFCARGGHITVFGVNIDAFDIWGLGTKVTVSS VL: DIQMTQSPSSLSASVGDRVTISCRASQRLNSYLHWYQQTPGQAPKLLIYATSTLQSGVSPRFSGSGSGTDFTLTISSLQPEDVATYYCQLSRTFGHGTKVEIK	0.067 µg/mL

Each recorded value in this set is attributed to patent US20160257732A1.
